Known FACS-Seq fitted mean (log10) of a selection of variants
B1: library; a variant is named by its letters at N, in order (parent)
chain: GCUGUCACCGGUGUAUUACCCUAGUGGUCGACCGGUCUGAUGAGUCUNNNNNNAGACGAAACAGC

Variants of: B1
Experiment: FACS-Seq fitted mean relative fluorescence mCherry/BFP with ligand (log10 relative fluorescence); ligand: hypoxanthine (xanthine aptamer); ligand concentration (+) FACS-Seq: 5 mM; higher = higher reporter protein expression
Conditions: HEK293T, ligand present: yes
Form field (numeric): enter value without unit.

{"VARIANT_NOTATION": "AGGCUA", "FACS-Seq fitted mean (log10)": 0.617}
{"VARIANT_NOTATION": "CACUGG", "FACS-Seq fitted mean (log10)": 0.709}
{"VARIANT_NOTATION": "UCCUAC", "FACS-Seq fitted mean (log10)": 0.751}
{"VARIANT_NOTATION": "UCACCU", "FACS-Seq fitted mean (log10)": 0.419}
{"VARIANT_NOTATION": "ACAUGG", "FACS-Seq fitted mean (log10)": 0.631}

For the variant shown here, "ACGAAG" , give the reported FACS-Seq fitted mean (log10).
0.501
